# assay system: EGFR on the surface of human tumour cells (A431, H292) (human, UniProt P00533 25-1210)
# protocol summary: cell-based or functional assay
Each record here notes measured IC50, EGF-induced EGFR phosphorylation, A431 cells, In Cell Western.
test readout: IC50, EGF-induced EGFR phosphorylation, A431 cells, In Cell Western (nM)

binder	endpoint result
E96-GS10-I1 pegylated (designed binder, Cys of the C-terminal Cys tail conjugated to 40 kDa branched PEG) E/I tandem 10Fn3 chain: MGVSDVPRDLEVVAATPTSLLISWASNRGTYQYYRITYGETGGNSPVQEFTVPGGVSTATISGLKPGVDYTITVYAVTDAFNPTTHEYNYFTTPISINYRTEIDKGSGSGSGSGSGSGSGSGSGSVSDVPRDLEVVAATPTSLLISWSARLKVARYYRITYGETGGNSPVQEFTVPKNVYTATISGLKPGVDYTITVYAVTRFRDYQPISINYRTEIDKPCQHHHHHH	61
E90-GS10-I1 pegylated (designed binder, Cys of the C-terminal Cys tail conjugated to 40 kDa branched PEG) E/I tandem 10Fn3 chain: MGVSDVPRDLEVVAATPTSLLISWYWEGLPYQYYRITYGETGGNSPVQEFTVPRDVNTATISGLKPGVDYTITVYAVTDWYNPDTHEYIYHTIPISINYRTEIDKGSGSGSGSGSGSGSGSGSGSVSDVPRDLEVVAATPTSLLISWSARLKVARYYRITYGETGGNSPVQEFTVPKNVYTATISGLKPGVDYTITVYAVTRFRDYQPISINYRTEIDKPCQHHHHHH	65
I1-GS10-E4 pegylated, His-tagged (designed binder, 40 kDa branched PEG on the Cys of the C-terminal Cys tail) MGVSDVPRDLEVVAATPTSLLISWSARLKVARYYRITYGETGGNSPVQEFTVPKNVYTATISGLKPGVDYTITVYAVTRFRDYQPISINYRTEIDKGSGSGSGSGSGSGSGSGSGSVSDVPRDLEVVAATPTSLLISWHERDGSRQYYRITYGETGGNSPVQEFTVPGGVRTATISGLKPGVDYTITVYAVTDYFNPTTHEYIYQTTPISINYRTEIDKPCQHHHHHH	12
E4-GS10-I1 pegylated, His-tagged (designed binder, 40 kDa branched PEG on the Cys of the C-terminal Cys tail, also called E4-GS10-I1 (with Peg)) MGVSDVPRDLEVVAATPTSLLISWHERDGSRQYYRITYGETGGNSPVQEFTVPGGVRTATISGLKPGVDYTITVYAVTDYFNPTTHEYIYQTTPISINYRTEIDKGSGSGSGSGSGSGSGSGSGSVSDVPRDLEVVAATPTSLLISWSARLKVARYYRITYGETGGNSPVQEFTVPKNVYTATISGLKPGVDYTITVYAVTRFRDYQPISINYRTEIDKPCQHHHHHH	12
